meta.source: patent US7378545B2

assay: Effect of ultrasonification intensity on crystal size (one-liter flask in ultrasonic bath, ≈40 kHz); type: physicochemical; details: trial 6: 100% US; unit assumed
metric-name: C.V. Coefficient of variation = (X86 − X14)/(2 * X50) (%)
Supply the numeric figure in %, leaving out any unit text.

For "N[C@@H](Cc1cc(I)c(Oc2cc(I)c(O)c(I)c2)c(I)c1)C(=O)O" the compound record lists C.V. Coefficient of variation = (X86 − X14)/(2 * X50) as 61

---

assay: Effect of ultrasonification intensity on crystal size (one-liter flask in ultrasonic bath, ≈40 kHz); assay type: physicochemical; conditions: trial 8: 100% US switched off immediately after nucleation; unit assumed
metric-name: C.V. Coefficient of variation = (X86 − X14)/(2 * X50) (%)
Supply the numeric figure in %, leaving out any unit text.

For "N[C@@H](Cc1cc(I)c(Oc2cc(I)c(O)c(I)c2)c(I)c1)C(=O)O" the molecule record lists C.V. Coefficient of variation = (X86 − X14)/(2 * X50) as 74
